Experiment: Therapeutic index, ratio of HC10 for mouse RBC to IC50 for cytotoxicity against human HeLa cells
Assay type: toxicity, cell-based
Conditions: mouse RBC and HeLa cells, read-out: TI
Non-standard residues stand in square brackets, D forms with d. Residues, ends and D or L forms follow the SMILES beside them. Nle(6-COOH) = N[C@@H](CCCCC(=O)O)C(=O)O; Asu = N[C@@H](CCCCCC(=O)O)C(=O)O
readout: selectivity ratio

Known selectivity ratio results, listed for orientation:
compound	selectivity ratio
CC(C)C[C@H](NC(=O)[C@H](CCCCN)NC(=O)[C@H](CC(C)C)NC(=O)[C@H](CC(C)C)NC(=O)[C@H](CCCCN)NC(=O)[C@H](CCCCN)NC(=O)[C@H](CC(C)C)NC(=O)[C@H](CC(C)C)NC(=O)[C@H](CCCCN)NC(=O)[C@H](CCCCN)NC(=O)[C@H](CC(C)C)NC(=O)[C@H](CC(C)C)NC(=O)[C@H](CCCCN)NC(=O)[C@H](CCCCN)NC(=O)[C@H](CC(C)C)NC(=O)[C@H](CC(C)C)NC(=O)[C@@H](N)CCCCN)C(N)=O (H-KLLKKLLKKLLKKLLKL-NH2)	1.2
CC(C)C[C@H](NC(=O)[C@H](CC(C)C)NC(=O)[C@H](CCCCN)NC(=O)[C@H](CCCCN)NC(=O)[C@H](CC(C)C)NC(=O)[C@H](CC(C)C)NC(=O)[C@H](CCCCN)NC(=O)[C@H](CCCCN)NC(=O)[C@H](CC(C)C)NC(=O)[C@H](CC(C)C)NC(=O)[C@H](CCCCN)NC(=O)[C@@H](N)CCCCN)C(=O)N[C@@H](CCCCN)C(N)=O (H-KKLLKKLLKKLLK-NH2)	24.1
CC(C)C[C@H](NC(=O)[C@H](CC(C)C)NC(=O)[C@H](CCCCN)NC(=O)[C@H](CCCCN)NC(=O)[C@H](CCC(=O)O)NC(=O)[C@H](CC(C)C)NC(=O)[C@H](CCCCN)NC(=O)[C@H](CCCCN)NC(=O)[C@H](CC(C)C)NC(=O)[C@H](CC(C)C)NC(=O)[C@H](CCCCN)NC(=O)[C@H](CCCCN)NC(=O)[C@H](CC(C)C)NC(=O)[C@@H](N)CC(C)C)C(N)=O (H-LLKKLLKKLEKKLL-NH2)	11.4
CC(C)C[C@H](NC(=O)[C@H](CC(C)C)NC(=O)[C@H](CCCCN)NC(=O)[C@H](CCCCN)NC(=O)[C@H](CC(C)C)NC(=O)[C@H](CC(C)C)NC(=O)[C@H](CCCCN)NC(=O)[C@H](CCCCN)NC(=O)[C@H](CC(C)C)NC(=O)[C@H](CCC(=O)O)NC(=O)[C@H](CCCCN)NC(=O)[C@H](CCCCN)NC(=O)[C@H](CC(C)C)NC(=O)[C@@H](N)CC(C)C)C(N)=O (H-LLKKELKKLLKKLL-NH2)	12
CC(C)C[C@H](NC(=O)[C@H](CC(C)C)NC(=O)[C@H](CCCCN)NC(=O)[C@H](CCCCN)NC(=O)[C@H](CC(C)C)NC(=O)[C@H](CC(C)C)NC(=O)[C@H](CCCCN)NC(=O)[C@H](CCCCN)NC(=O)[C@H](CC(C)C)NC(=O)[C@H](CC(C)C)NC(=O)[C@H](CCCCN)NC(=O)[C@H](CCCCN)NC(=O)[C@H](CC(C)C)NC(=O)[C@@H](N)CCC(=O)O)C(N)=O (H-ELKKLLKKLLKKLL-NH2)	1.58

Would you mind listing selectivity ratio for each of the following compounds?
1. CC(C)C[C@H](NC(=O)[C@H](CCCCN)NC(=O)[C@H](CCCCN)NC(=O)[C@H](CC(C)C)NC(=O)[C@H](CC(C)C)NC(=O)[C@H](CCCCN)NC(=O)[C@H](CCCCN)NC(=O)[C@H](CC(C)C)NC(=O)[C@H](CC(C)C)NC(=O)[C@H](CCCCN)NC(=O)[C@H](CCCCN)NC(=O)[C@H](CC(C)C)NC(=O)[C@@H](N)CC(C)C)C(=O)N[C@@H](CCC(=O)O)C(N)=O (H-LLKKLLKKLLKKLE-NH2)
2. CC(C)C[C@H](NC(=O)[C@H](CC(C)C)NC(=O)[C@H](CCCCN)NC(=O)[C@H](CCCCN)NC(=O)[C@H](CC(C)C)NC(=O)[C@H](CC(C)C)NC(=O)[C@H](CCCCN)NC(=O)[C@H](CCCCN)NC(=O)[C@H](CCC(=O)O)NC(=O)[C@H](CC(C)C)NC(=O)[C@H](CCCCN)NC(=O)[C@H](CCCCN)NC(=O)[C@H](CC(C)C)NC(=O)[C@@H](N)CC(C)C)C(N)=O (H-LLKKLEKKLLKKLL-NH2)
3. CC(C)C[C@H](NC(=O)[C@H](CCCCN)NC(=O)[C@H](CCCCN)NC(=O)[C@H](CC(C)C)NC(=O)[C@H](CC(C)C)NC(=O)[C@H](CCCCN)NC(=O)[C@H](CCCCN)NC(=O)[C@H](CC(C)C)NC(=O)[C@H](CC(C)C)NC(=O)[C@H](CCCCN)NC(=O)[C@H](CCCCN)NC(=O)[C@H](CC(C)C)NC(=O)[C@@H](N)CC(C)C)C(=O)N[C@@H](CCCCC(=O)O)C(N)=O (H-LLKKLLKKLLKKL[Nle(6-COOH)]-NH2)
4. CC(C)C[C@H](NC(=O)[C@H](CC(C)C)NC(=O)[C@H](CCCCN)NC(=O)[C@H](CCCCN)NC(=O)[C@H](CC(C)C)NC(=O)[C@H](CC(C)C)NC(=O)[C@H](CCCCN)NC(=O)[C@H](CCCCN)NC(=O)[C@H](CC(C)C)NC(=O)[C@H](CC(C)C)NC(=O)[C@H](CCCCN)NC(=O)[C@H](CCC(=O)O)NC(=O)[C@H](CC(C)C)NC(=O)[C@@H](N)CC(C)C)C(N)=O (H-LLEKLLKKLLKKLL-NH2)
5. CC(C)C[C@H](NC(=O)[C@H](CCCCN)NC(=O)[C@H](CCCCN)NC(=O)[C@H](CC(C)C)NC(=O)[C@H](CC(C)C)NC(=O)[C@H](CCCCN)NC(=O)[C@H](CCCCN)NC(=O)[C@H](CC(C)C)NC(=O)[C@H](CC(C)C)NC(=O)[C@H](CCCCN)NC(=O)[C@H](CCCCN)NC(=O)[C@H](CC(C)C)NC(=O)[C@@H](N)CC(C)C)C(=O)N[C@@H](CCCCCC(=O)O)C(N)=O (H-LLKKLLKKLLKKL[Asu]-NH2)

32.1
4.8
25.4
0.883
15.4

====

System: Cell membrane
Assay: Induction of cell membrane damage in human MCF7 cells assessed as nucleic acid leakage at 1 to 2 times IC50 measured after 0.5 to 6 hrs by UV based analysis
Type: cell membranes
Details: time 0.5-6 hrs
Calls of active or inactive are those of the source. The calls are words filed in the database; no cut-off is given here. Non-standard residues stand in square brackets, D forms with d. Residues, ends and D or L forms follow the SMILES beside them. Aad = N[C@@H](CCCC(=O)O)C(=O)O
Could you please pick one outcome from this set? 1 (yes) (active), 0 (no) (inactive)

compound	class_label
CC(C)C[C@H](NC(=O)[C@H](CCCCN)NC(=O)[C@H](CCCCN)NC(=O)[C@H](CC(C)C)NC(=O)[C@H](CC(C)C)NC(=O)[C@H](CCCCN)NC(=O)[C@H](CCCCN)NC(=O)[C@H](CC(C)C)NC(=O)[C@H](CC(C)C)NC(=O)[C@H](CCCCN)NC(=O)[C@H](CCCCN)NC(=O)[C@H](CC(C)C)NC(=O)[C@@H](N)CC(C)C)C(=O)N[C@@H](CCC(=O)O)C(N)=O (H-LLKKLLKKLLKKLE-NH2)	1 (yes)

Would you mind telling me which call this test gave CC(=O)O[C@H]1C(=O)[C@@]2(C)[C@H]([C@H](OC(=O)c3ccccc3)[C@]3(O)C[C@H](OC(=O)[C@H](O)[C@@H](NC(=O)c4ccccc4)c4ccccc4)C(C)=C1C3(C)C)[C@]1(OC(C)=O)CO[C@@H]1C[C@@H]2O ?
0 (no)

// outcome(item) with item = CC(C)C[C@H](NC(=O)[C@H](CC(C)C)NC(=O)[C@H](CCCCN)NC(=O)[C@H](CCCCN)NC(=O)[C@H](CC(C)C)NC(=O)[C@H](CC(C)C)NC(=O)[C@H](CCCCN)NC(=O)[C@H](CCCCN)NC(=O)[C@H](CC(C)C)NC(=O)[C@H](CC(C)C)NC(=O)[C@H](CCCCN)NC(=O)[C@H](CCCCN)NC(=O)[C@H](CC(C)C)NC(=O)[C@@H](N)CC(C)C)C(N)=O (H-LLKKLLKKLLKKLL-NH2)
1 (yes)

I'd appreciate the recorded outcome for CC(C)C[C@H](NC(=O)[C@H](CCCCN)NC(=O)[C@H](CCCCN)NC(=O)[C@H](CC(C)C)NC(=O)[C@H](CC(C)C)NC(=O)[C@H](CCCCN)NC(=O)[C@H](CCCCN)NC(=O)[C@H](CC(C)C)NC(=O)[C@H](CC(C)C)NC(=O)[C@H](CCCCN)NC(=O)[C@H](CCCCN)NC(=O)[C@H](CC(C)C)NC(=O)[C@@H](N)CC(C)C)C(=O)N[C@@H](CCCC(=O)O)C(N)=O (H-LLKKLLKKLLKKL[Aad]-NH2) from this test.
1 (yes)
